Origin of the recorded values: patent US20210253718A1

ASSAY TARGET: T1, FZD6 cysteine-rich domain (CRD), MYC-tagged and GPI-anchored on CHO cells (human, UniProt O60353 20-146, GPI anchor)
T1 construct: also called FZD6 CRD; CHO-myc-FZDGPI; not shown: MYC tag and GPI anchor signal
T1 sequence: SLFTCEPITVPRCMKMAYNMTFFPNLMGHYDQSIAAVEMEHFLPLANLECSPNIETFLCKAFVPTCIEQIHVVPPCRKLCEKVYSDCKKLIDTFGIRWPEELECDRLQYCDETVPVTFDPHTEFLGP
ASSAY: immunofluorescence, CHO-CRD cells
READOUT KIND: binding result

* Fab-2903 (Fab, V domains shown, Fab; also called Fv-2903) VH: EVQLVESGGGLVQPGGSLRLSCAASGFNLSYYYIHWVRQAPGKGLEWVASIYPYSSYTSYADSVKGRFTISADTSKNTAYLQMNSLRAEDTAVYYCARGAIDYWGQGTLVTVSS V domain: DIQMTQSPSSLSASVGDRVTITCRASQSVSSAVAWYQQKPGKAPKLLIYSASSLYSGVPSRFSGSRSGTDFTLTISSLQPEDFATYYCQQWGGGSSLFTFG | no binding
* Fab-2906 (Fab, V domains shown, Fab; also called Fv-2906) VH: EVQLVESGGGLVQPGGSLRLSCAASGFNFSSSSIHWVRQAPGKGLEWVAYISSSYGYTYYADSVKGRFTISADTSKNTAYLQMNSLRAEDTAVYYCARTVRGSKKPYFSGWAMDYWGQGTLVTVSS VL: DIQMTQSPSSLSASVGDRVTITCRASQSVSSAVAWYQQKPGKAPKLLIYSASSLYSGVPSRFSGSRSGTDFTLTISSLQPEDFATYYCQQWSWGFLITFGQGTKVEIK | no binding
